# Assay Explanation: Solid phase stability experiment (XRPD, HPLC, TGA after one week)
# Type: physicochemical
# Measurement Setup: 25° C./60% RH, unsealed, TGA
Parameter: Weight loss (%). Scope: all listed entries.
Note: unit % is implicit; provide only the numeric part.

Sample records with Weight loss (%):
C=CC(=O)Nc1cc(Nc2ncc(F)c(-c3cnn(C)c3)n2)c(OC)cc1N1CCC(N(C)C)CC1.O=P(O)(O)O [crystal form B] | 4.6
C=CC(=O)Nc1cc(Nc2ncc(F)c(-c3cnn(C)c3)n2)c(OC)cc1N1CCC(N(C)C)CC1.O=C(O)C[C@H](O)C(=O)O [crystal form D] | 1.3
C=CC(=O)Nc1cc(Nc2ncc(F)c(-c3cnn(C)c3)n2)c(OC)cc1N1CCC(N(C)C)CC1.O=C(O)/C=C\C(=O)O [crystal form C-1] | 1.2

Supply recorded Weight loss (%) for C=CC(=O)Nc1cc(Nc2ncc(F)c(-c3cnn(C)c3)n2)c(OC)cc1N1CCC(N(C)C)CC1.O=C(O)CCCCC(=O)O [crystal form E] here.
0.5

Tell me measured Weight loss (%) for C=CC(=O)Nc1cc(Nc2ncc(F)c(-c3cnn(C)c3)n2)c(OC)cc1N1CCC(N(C)C)CC1 [the free base of compound of formula X] please.
5.3

Give recorded Weight loss (%). C=CC(=O)Nc1cc(Nc2ncc(F)c(-c3cnn(C)c3)n2)c(OC)cc1N1CCC(N(C)C)CC1.Cl [crystal form A]
4.3

###

# Assay Explanation: In vivo test of rats, pharmacokinetics after oral gavage
# Design: species or system SD rats
# Measurement Setup: rat; oral gavage 5 mg/kg; plasma
Value Kind: Half-life T1/2
Please give the number followed by its unit.

Worked examples follow.
C=CC(=O)Nc1cc(Nc2ncc(F)c(-c3cnn(C)c3)n2)c(OC)cc1N1CCC(N(C)C)CC1.O=C(O)C[C@H](O)C(=O)O [crystal form D] | 6.63 h
C=CC(=O)Nc1cc(Nc2ncc(F)c(-c3cnn(C)c3)n2)c(OC)cc1N1CCC(N(C)C)CC1.O=P(O)(O)O [crystal form B] | 7.04 h

Return the recorded Half-life T1/2 value; entry: C=CC(=O)Nc1cc(Nc2ncc(F)c(-c3cnn(C)c3)n2)c(OC)cc1N1CCC(N(C)C)CC1.Cl [crystal form A]
7.44 h

Answer with the recorded Half-life T1/2 of C=CC(=O)Nc1cc(Nc2ncc(F)c(-c3cnn(C)c3)n2)c(OC)cc1N1CCC(N(C)C)CC1.O=C(O)CCCCC(=O)O [crystal form E] only.
7.46 h

Provide one value: measured Half-life T1/2 of C=CC(=O)Nc1cc(Nc2ncc(F)c(-c3cnn(C)c3)n2)c(OC)cc1N1CCC(N(C)C)CC1.O=C(O)/C=C\C(=O)O [crystal form C-1]
7.92 h

###

# Assay Explanation: Dynamic solubility experiment in water, SGF, FaSSIF, FeSSIF
# Format: physicochemical
# Measurement Setup: fasting state simulated intestinal fluid (FaSSIF), thermodynamic from solid; FaSSIF, room temperature, after 1 hour of solid dispersion
Value Kind: solubility at 1 h

Return solubility at 1 h for the following molecule: C=CC(=O)Nc1cc(Nc2ncc(F)c(-c3cnn(C)c3)n2)c(OC)cc1N1CCC(N(C)C)CC1 [the free base of compound of formula X]
4200 µg/mL

###

# Assay Explanation: In vivo test of rats, pharmacokinetics after oral gavage
# Set-up: species or system SD rats
# Measurement Setup: rat, oral gavage 5 mg/kg
Value Kind: Maximum plasma concentration Cmax

C=CC(=O)Nc1cc(Nc2ncc(F)c(-c3cnn(C)c3)n2)c(OC)cc1N1CCC(N(C)C)CC1.Cl [crystal form A] | 93.3 ng/mL
C=CC(=O)Nc1cc(Nc2ncc(F)c(-c3cnn(C)c3)n2)c(OC)cc1N1CCC(N(C)C)CC1.O=C(O)C[C@H](O)C(=O)O [crystal form D] | 84.4 ng/mL
C=CC(=O)Nc1cc(Nc2ncc(F)c(-c3cnn(C)c3)n2)c(OC)cc1N1CCC(N(C)C)CC1.O=P(O)(O)O [crystal form B] | 93.2 ng/mL

Specify Maximum plasma concentration Cmax for C=CC(=O)Nc1cc(Nc2ncc(F)c(-c3cnn(C)c3)n2)c(OC)cc1N1CCC(N(C)C)CC1.O=C(O)CCCCC(=O)O [crystal form E] and stop.
117 ng/mL

Please report Maximum plasma concentration Cmax for the following compound: C=CC(=O)Nc1cc(Nc2ncc(F)c(-c3cnn(C)c3)n2)c(OC)cc1N1CCC(N(C)C)CC1.O=C(O)/C=C\C(=O)O [crystal form C-1]
86.3 ng/mL

Every entry's value here was drawn from patent US10561646B2.
